experiment: Hygroscopicity of the salt forms; format: physicochemical; details: in words; judged from TG loss of weight
Observation Type: hygroscopicity

{"columns": ["Compound", "Result"],
 "data": [
  ["CN(C)Cc1ccc(N/C(=C2\\C(=O)Nc3cc(F)ccc32)c2ccc(CCC(=O)O)cc2)cc1 [succinate]", "slight hygroscopicity"],
  ["CN(C)Cc1ccc(N/C(=C2\\C(=O)Nc3cc(F)ccc32)c2ccc(CCC(=O)O)cc2)cc1 [tartrate]", "strong hygroscopicity"],
  ["CN(C)Cc1ccc(N/C(=C2\\C(=O)Nc3cc(F)ccc32)c2ccc(CCC(=O)O)cc2)cc1 [sodium]", "strong hygroscopicity"],
  ["CN(C)Cc1ccc(N/C(=C2\\C(=O)Nc3cc(F)ccc32)c2ccc(CCC(=O)O)cc2)cc1 [bromide]", "slight hygroscopicity"]
]}

# credit: patent US20110130437A1
